Documented ΔR/ΔRAD2 OA across a set of molecules
# testName: Probe fluorescence ratio response to oleate:BSA complex, relative to ADIFAB2 (ΔR/ΔRAD2)
# Format: binding
# testSettings: fluorescence response (R-Ro) relative to ADIFAB2; oleate
quantity: ΔR/ΔRAD2 OA

>>> experimentalvalue("L2P21G3: acrylodan-labeled rI-FABP-L72A mutein: M18 I, G31 M, F55 M, A73 WT (protein, UniProt P02693 2-132, looked up, variant M18I G31M F55M L72A, acrylodan label, acrylodan-labeled rI-FABP-L72A mutein: M18 I, G31 M, F55 M, A73 WT) Fatty acid-binding protein, …: AFDGTWKVDRNENYEKFIEKMGINVVKRKLMAHDNLKLTITQEGNKFTVKESSNMRNIDVVFELGVDFAYSAADGTELTGTWTMEGNKLVGKFKRVDNGKELIAVREISGNELIQTYTYEGVEAKRIFKKE")
0.6
>>> experimentalvalue("L1P2 F7: acrylodan-labeled rI-FABP mutein: Y14 I, L38 wt, L72 G, Y117 V (protein, UniProt P02693 2-132, looked up, variant Y14I L72G Y117V, acrylodan label, acrylodan-labeled rI-FABP mutein: Y14 I, L38 wt, L72 G, Y117 V) Fatty acid-binding protein, …: AFDGTWKVDRNENIEKFMEKMGINVVKRKLGAHDNLKLTITQEGNKFTVKESSNFRNIDVVFELGVDFAYSGADGTELTGTWTMEGNKLVGKFKRVDNGKELIAVREISGNELIQTVTYEGVEAKRIFKKE")
0.3
>>> experimentalvalue("L2P8A6: acrylodan-labeled rI-FABP-L72A mutein: M18 I, G31 V, F55 V, A73 V (protein, UniProt P02693 2-132, looked up, variant M18I G31V F55V L72A A73V, acrylodan label) Fatty acid-binding protein, …: AFDGTWKVDRNENYEKFIEKMGINVVKRKLVAHDNLKLTITQEGNKFTVKESSNVRNIDVVFELGVDFAYSAVDGTELTGTWTMEGNKLVGKFKRVDNGKELIAVREISGNELIQTYTYEGVEAKRIFKKE")
0.4
>>> experimentalvalue("L2P16A3: acrylodan-labeled rI-FABP-L72A mutein: M18 I, G31 L, F55 WT, A73 G (protein, UniProt P02693 2-132, looked up, variant M18I G31L L72A A73G, acrylodan label, acrylodan-labeled rI-FABP-L72A mutein: M18 I, G31 L, F55 WT, A73 G) Fatty acid-binding protein, …: AFDGTWKVDRNENYEKFIEKMGINVVKRKLLAHDNLKLTITQEGNKFTVKESSNFRNIDVVFELGVDFAYSAGDGTELTGTWTMEGNKLVGKFKRVDNGKELIAVREISGNELIQTYTYEGVEAKRIFKKE")
0.6
>>> experimentalvalue("L1P17 A1: acrylodan-labeled rI-FABP mutein: Y14 I, L38 wt, L72 W, Y117 wt (protein, UniProt P02693 2-132, looked up, variant Y14I L72W, acrylodan label) Fatty acid-binding protein, …: AFDGTWKVDRNENIEKFMEKMGINVVKRKLGAHDNLKLTITQEGNKFTVKESSNFRNIDVVFELGVDFAYSWADGTELTGTWTMEGNKLVGKFKRVDNGKELIAVREISGNELIQTYTYEGVEAKRIFKKE")
"−1.2"
>>> experimentalvalue("L2P1E6: acrylodan-labeled rI-FABP-L72A mutein: M18 L, G31 WT, F55 WT, A73 L (protein, UniProt P02693 2-132, looked up, variant M18L L72A A73L, acrylodan label) Fatty acid-binding protein, …: AFDGTWKVDRNENYEKFLEKMGINVVKRKLGAHDNLKLTITQEGNKFTVKESSNFRNIDVVFELGVDFAYSALDGTELTGTWTMEGNKLVGKFKRVDNGKELIAVREISGNELIQTYTYEGVEAKRIFKKE")
0.1
>>> experimentalvalue("L2P8F11: acrylodan-labeled rI-FABP-L72A mutein: M18 WT, G31 WT, F55 WT, A73 I (protein, UniProt P02693 2-132, looked up, variant L72A A73I, acrylodan label, acrylodan-labeled rI-FABP-L72A mutein: M18 WT, G31 WT, F55 WT, A73 I) Fatty acid-binding protein, …: AFDGTWKVDRNENYEKFMEKMGINVVKRKLGAHDNLKLTITQEGNKFTVKESSNFRNIDVVFELGVDFAYSAIDGTELTGTWTMEGNKLVGKFKRVDNGKELIAVREISGNELIQTYTYEGVEAKRIFKKE")
0.0
>>> experimentalvalue("L2P12 G9: acrylodan-labeled rI-FABP-L72A mutein: M18 L, G31 WT, F55 WT, A73 V (protein, UniProt P02693 2-132, looked up, variant M18L L72A A73V, acrylodan label, acrylodan-labeled rI-FABP-L72A mutein: M18 L, G31 WT, F55 WT, A73 V) Fatty acid-binding protein, …: AFDGTWKVDRNENYEKFLEKMGINVVKRKLGAHDNLKLTITQEGNKFTVKESSNFRNIDVVFELGVDFAYSAVDGTELTGTWTMEGNKLVGKFKRVDNGKELIAVREISGNELIQTYTYEGVEAKRIFKKE")
0.07
>>> experimentalvalue("L1P12 E11: acrylodan-labeled rI-FABP mutein: Y14 L, L38 wt, L72 W, Y117 wt (protein, UniProt P02693 2-132, looked up, variant Y14L L72W, acrylodan label) Fatty acid-binding protein, …: AFDGTWKVDRNENLEKFMEKMGINVVKRKLGAHDNLKLTITQEGNKFTVKESSNFRNIDVVFELGVDFAYSWADGTELTGTWTMEGNKLVGKFKRVDNGKELIAVREISGNELIQTYTYEGVEAKRIFKKE")
"−1.0"
>>> experimentalvalue("L2P21 C1: acrylodan-labeled rI-FABP-L72A mutein: M18 I, G31 Y, F55 WT, A73 V (protein, UniProt P02693 2-132, looked up, variant M18I G31Y L72A A73V, acrylodan label, acrylodan-labeled rI-FABP-L72A mutein: M18 I, G31 Y, F55 WT, A73 V) Fatty acid-binding protein, …: AFDGTWKVDRNENYEKFIEKMGINVVKRKLYAHDNLKLTITQEGNKFTVKESSNFRNIDVVFELGVDFAYSAVDGTELTGTWTMEGNKLVGKFKRVDNGKELIAVREISGNELIQTYTYEGVEAKRIFKKE")
3.20
